Where do these numbers come from? They come from PubChem BioAssay (NCI).

# experimental-details: NCI Yeast Anticancer Drug Screen. Data for the rad50 strain (AID 155);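 also: 0% = growth of vehicle-only cultures of the same strain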
# condition-notes: S. cerevisiae rad50 strain growth inhibition; at 3.7 µM; active compounds read high
Compounds without any hit were thinned out: in the full panel of roughly 79,000, 15% have a hit.
Listed below: growth inhibition values for each entry.
property: growth inhibition (%)

{"molecule": "CCOC(=O)c1cc(-c2ccc(Cl)cc2)c([N+](=O)[O-])n1C", "reading-unit": "%", "numeric-readout": 26}
{"molecule": "CCC[CH2][Ge]([CH2]CCC)([CH2]CCC)[O]C(=O)C(OC)c1ccccc1 (configuration not stated)", "reading-unit": "%", "numeric-readout": 8}
{"molecule": "O=C1Nc2ccccc2/C1=C/COc1ccccc1", "reading-unit": "%", "numeric-readout": 4}
{"molecule": "CC(=O)OCc1ccc(O)c(C=O)c1", "reading-unit": "%", "numeric-readout": -20}
{"molecule": "O=C(O)c1cccc(-c2c3ccc(=O)cc-3oc3cc(O)ccc23)c1", "reading-unit": "%", "numeric-readout": 13}
{"molecule": "CCCCCCCCCCCC(=O)N(C)C", "reading-unit": "%", "numeric-readout": -5}
{"molecule": "COC(=O)c1ccc(NCC2=CC(=O)C=CC2=O)cc1O", "reading-unit": "%", "numeric-readout": 32}
{"molecule": "CCN(CC)CCNc1ccc([N+](=O)[O-])c2nc3ccc(OC)cc3c(N)c12", "reading-unit": "%", "numeric-readout": -2}
{"molecule": "COC1=CC(=O)C(C2(OC(C)C)OC(=O)C(Cl)=C2Cl)=CC1=O (configuration not stated)", "reading-unit": "%", "numeric-readout": 33}
{"molecule": "CC(C)=CC(=O)O[C@@H]1CC(C)(C)CC2C3=CCC4[C@]56CC[C@](O)(OC5)C(C)(C)C6CC[C@@]4(C)C3(C)CC[C@]21C(=O)O (some centres not stated)", "reading-unit": "%", "numeric-readout": 36}
{"molecule": "O=C(O)C1CCCCC1c1c2ccc(=O)c(O)c-2oc2c(O)c(O)ccc12 (configuration not stated)", "reading-unit": "%", "numeric-readout": -22}
{"molecule": "COC(=O)C1=C(C)NC(C)=C(C(=O)OC)C1c1cccc(/[N+]([O-])=C/c2ccccc2)c1", "reading-unit": "%", "numeric-readout": -9}
{"molecule": "O=[N+]([O-])c1ccc([N+]2=NC(c3ccccc3)=NN(c3ccccc3)C2)cc1", "reading-unit": "%", "numeric-readout": -6}
{"molecule": "S=C(Nc1ccc(Cl)cc1)SC1CCCCC1", "reading-unit": "%", "numeric-readout": 9}
{"molecule": "C/C(=N/NC(=S)N1CCCCCC1)c1cccc(/C(C)=N\\NC(=S)N2CCCCCC2)n1", "reading-unit": "%", "numeric-readout": 42}
{"molecule": "COCCOC(=O)CCn1cc(F)c(=O)[nH]c1=O", "reading-unit": "%", "numeric-readout": -11}
{"molecule": "CN=C(N)N/N=C/c1ccc2c(c1)Cc1ccccc1-2", "reading-unit": "%", "numeric-readout": -9}
{"molecule": "O=C(COC(=O)c1cc(O)c(O)c(O)c1)c1ccc(-c2ccccc2)cc1", "reading-unit": "%", "numeric-readout": 1}
{"molecule": "COc1ccc(C2c3cc4c(cc3OC(C)(O)C2C)OCO4)c(OC)c1 (configuration not stated)", "reading-unit": "%", "numeric-readout": 1}
{"molecule": "CCN(CC)[P+](c1ccccc1O)(N(CC)CC)N(CC)CC", "reading-unit": "%", "numeric-readout": 9}
{"molecule": "COc1cc2c(c(OC)c1OC)-c1c(cc3c(c1OC)OCO3)CC(C)C(C)(O)C2OC(=O)c1ccccc1 (configuration not stated)", "reading-unit": "%", "numeric-readout": -18}
{"molecule": "CCCCCCCCCCC1CCC(=O)O1 (configuration not stated)", "reading-unit": "%", "numeric-readout": -46}
